tested on: HCT-116; test: NCI tumour cell line growth inhibition, 48 h
Activity calls are given as the source filed them. Rule as the data show it: active = GI50 up to about 1.1 µM and inactive = higher.
Outcome field: choose from T for active, F for inactive

CCNC(=O)/C(=C/c1ccc(OC)cc1)c1cc(OC)c(OC)c(OC)c1 ... F
CC1=NN(c2cccc(Cl)c2)C2(C1=Cc1ccc(O)cc1)C(Cl)C(=O)N2c1nc2ccccc2s1 (configuration not stated) ... F
O=C1C=C(O)C(=Cc2c(O)cc(O)cc2O)C(O)=C1 ... F
C1OC1CN1CCN(CC2CO2)CC1 (configuration not stated) ... F
O=C(O)Cc1c(O)ccc2ccccc12 ... F
O=C(CP(=O)(c1ccccc1)c1ccccc1)c1cccc(C(=O)CP(=O)(c2ccccc2)c2ccccc2)c1 ... F

We next turn to a different compound, shown below.
Please indicate how the test categorized COC(=O)c1cc2ccccc2c2nc3ccccc3c(Cl)c12 .
F

====

test system: NCI/ADR-RES; test: NCI tumour cell line growth inhibition, 48 h
Activity calls are given as the source filed them. Cut-off read from the data, not from the text of the source: active = GI50 up to about 1.1 µM and inactive = higher.
Entries annotated with measured GI50

Use the examples below as a reference point.
CCCCNC(=S)Nc1nc(C(=O)NNC(=S)NC2CCCCC2)cs1 ... 74.3 µM (inactive)
CN(/N=C/C=N/N(C)C1=NCCN1)C1=NCCN1 ... > 100 µM (inactive)
CC(Nc1ccc(Cl)cc1)c1ccncc1 (configuration not stated) ... 61.5 µM (inactive)
NCC(=O)Nc1ccccc1 ... > 100 µM (inactive)
CC(C)(C)C1CCC2c3c([nH]c4ccccc34)C3C(=O)N(c4ccc5c(c4)C(=O)c4ccccc4C5=O)C(=O)C3C2C1 (configuration not stated) ... > 100 µM (inactive)

Readout GI50 for CC(=O)O[C@H]1C(=O)[C@@]2(C)[C@H]([C@H](OC(=O)c3ccoc3)[C@]3(O)C[C@H](OC(=O)[C@H](O)[C@@H](NC(=O)c4ccccc4)c4ccccc4)C(C)=C1C3(C)C)[C@]1(OC(C)=O)CO[C@@H]1C[C@@H]2O , test system NCI/ADR-RES, was > 10.9 µM (inactive)

The compound CCOC(=O)C1(NC(=O)OC(C)(C)C)CCc2[nH]oc(=O)c2C1 (configuration not stated) , tested on NCI/ADR-RES, showed GI50 of > 100 µM (inactive)

====

tested on: A498; assay: NCI tumour cell line growth inhibition, 48 h
Active and inactive are the calls of the source. No stated cut-off is given here; in the data, active = GI50 up to about 1.1 µM and inactive = higher.
Select the correct class. Options are 1 (yes) for active, 0 (no) for inactive and nothing else.

CC(N)Cc1cccc(C(F)(F)F)c1 (stereo unspecified) ... 0 (no)
Cc1ccc(C2=NO[C@@H]3C(=O)N(c4ccc(Cc5ccc(N6C(=O)[C@H]7C(c8ccc(C)cc8)=NO[C@H]7C6=O)cc5)cc4)C(=O)[C@H]23)cc1 ... 0 (no)
O=C(/C=C/c1ccccc1)CC(=O)CCC(=O)Nc1ccc(Cl)cc1 ... 0 (no)
O=C1c2ccccc2C(=O)c2c(NC(=O)c3ccc4c5c(ncnc35)-c3ccccc3C4=O)cccc21 ... 0 (no)
COc1ccc(C[C@@H]2NC[C@@H](O)[C@@H]2OC(C)=O)cc1 ... 1 (yes)

Consider now this further compound.
Answer briefly: the call reported for Cn1c2ccccc2c2cc(-c3ccccc3)c3c(c21)C(=O)C=CC3=O in this assay.
0 (no)

====

test system: SK-MEL-28; test: NCI tumour cell line growth inhibition, 48 h
Activity calls are given as the source filed them. No stated cut-off is given here; in the data, active = GI50 up to about 1.1 µM and inactive = higher.
result-type: GI50

Example entries begin here.
O=C(CCc1cccc(O)c1)NCCc1cccc(O)c1 ... > 100 µM (inactive)
CC/N=C(/C#N)NCC ... > 100 µM (inactive)
COc1cc(C(=O)Oc2c(C(C)=O)sc3c2c(=O)n(-c2ccccc2)c(=S)n3-c2ccccc2)cc(OC)c1OC ... 19.2 µM (inactive)

--- query ---
According to the records, this compound C1OC1CN1CCN(CC2CO2)CC1 (centres undefined) displays GI50 of > 100 µM (inactive)

====

Measured GI50 by item
test system: SR; experiment: NCI tumour cell line growth inhibition, 48 h
Activity calls are given as the source filed them. Rule as the data show it: active = GI50 up to about 1.1 µM and inactive = higher.

The recorded GI50 for entry C/C(=C\CO)CC/C=C(\C)CNc1c(F)c(F)c(F)c(F)c1F equals 28.3 µM (inactive)

C#CCNC(=O)NCCCC(NC(C)=O)C(=O)NCc1ccccc1 (centres undefined) has a reported GI50 of > 100 µM (inactive)

Record summary for CC(=O)C1=C(C)NC(=C(C#N)C#N)C(C#N)=C1 : reported GI50 = > 100 µM (inactive)

GET /value?item= C[N+]1(CCN=C=NC2CCCCC2)CCOCC1 &field=GI50 returns > 100 µM (inactive)

====

test system: COLO 205; assay: NCI tumour cell line growth inhibition, 48 h
Activity calls are given as the source filed them. Cut-off read from the data, not from the text of the source: active = GI50 up to about 1.1 µM and inactive = higher.
Outcome (select one): active, inactive

c1ccc(OC2=NC3=S(S2)SC(Oc2ccccc2)=N3)cc1 ... inactive

State the result this test recorded for CCOC(=O)CCC(NC(=O)OCc1ccccc1)C(=O)NC(CCC(=O)OCC)C(=O)NC(CCC(=O)OCC)C(=O)NNC(=O)OC(C)(C)C (configuration not stated) .
inactive

What is the recorded call for this compound in the test? C=CC1CN(C(=O)OCC)N(C(=O)OCC)C1CCc1ccccc1 (configuration not stated)
inactive

Which outcome was assigned to CCCn1c(SC)nc(COC(=O)NC)c1COC(=O)NC in this test?
inactive

Please let me know the test result on file for O=c1c2cc([N+](=O)[O-])ccc2n2n1Cc1ccccc1CC2 .
inactive

I would be grateful if you could indicate the recorded call for COC(=O)c1nn(-c2ccccc2)c(=O)cc1N=[N+]=[N-] .
inactive

Which result was noted for this compound in the test: Fc1cccc2c1cc1ccc3cccc4ccc2c1c34
inactive

Test call for this compound, please: CCCCCCCCCCCCCCCCCCOP(=O)([O-])OCC[N+](C)(C)C
active

Which outcome did this test record for the compound CC(C)CC(=O)NC(C(=O)NC(C(=O)NC(CC(C)C)C(O)CC(=O)NC(C)C(=O)NC(CC(C)C)C(O)CC(=O)O)C(C)C)C(C)C (configuration not stated) ?
inactive

Hi, sorry to bother you, what did the test record for O=C(Nc1nc2ncn(CCO)c2c(=S)[nH]1)c1ccccc1 ?
inactive

Which outcome did this test record for the compound CC(=O)Oc1cc(S(=O)(=O)Nc2nc(N)n[nH]2)c(S)cc1Cl ?
inactive

====

test system: SF-295; assay: NCI tumour cell line growth inhibition, 48 h
Active and inactive are the calls of the source. Rule as the data show it: active = GI50 up to about 1.1 µM and inactive = higher.
Entry note: the call must match one of TRUE for active, FALSE for inactive

Example entries begin here.
COC(=O)CCC(C)[C@H]1CCC2C3CC[C@@H]4CC5(CC[C@]4(C)C3C[C@H](OC(C)=O)[C@@]21C)OOC1(CCCCC1)OO5 (some centres not stated) ... FALSE
Cc1ccc2c(c1)c(=O)c1c(NCCN(C)C)ccc3nnn2c31 ... FALSE
Cc1ccc(N2C(=O)C3c4[nH]c5ccccc5c4C4CCC(C(C)(C)C)CC4C3C2=O)cc1 (configuration not stated) ... FALSE
O=C1C=CC(=O)C(CNc2ccc(C(=O)OC34CC5CC(CC(C5)C3)C4)cc2)=C1Br ... FALSE
COc1cc2c(cc1OCCCOc1cc3c(cc1OC)C(=O)N1CCC[C@H]1CN3)N=C[C@@H]1CCCN1C2=O ... TRUE
C/C(=N\NC(=S)NC1CCCC1)c1ccccn1 ... TRUE

Lab note: next molecule to report on.
Recorded test call requested for CCOC(=O)C(=O)/C(=C/NC(=S)c1ccncc1)C(=O)OCC
FALSE

====

system: NCI/ADR-RES; test: NCI tumour cell line growth inhibition, 48 h
The source made the active and inactive calls. Cut-off read from the data, not from the text of the source: active = GI50 up to about 1.1 µM and inactive = higher.
Your reply should match one of these outcome classes. TRUE for active, FALSE for inactive

Below are worked cases with known answers.
COC(=O)CCC(=O)c1ccc2c(c1)CCC2 ... FALSE
O=C1Nc2ccccc2/C1=N\c1cccc2ncccc12 ... FALSE
C=C1C(=O)OC2CCN3CC=C(COC(=O)C(C)(O)C4(CO4)C1C)C23 (stereo not given) ... FALSE

Each molecule tested received a call. Report the one for Cn1c(=O)oc2cc(C(O)CN3CCN(Cc4ccccn4)CC3)c(Cl)cc21 (stereo not given) .
TRUE

State the result this test recorded for COC1CCC(OS(C)(=O)=O)C(C)O1 (stereo not given) .
FALSE

Any idea what this test logged for CCn1c(=O)c2c3cc(O)ccc3oc2c2ccc(O)cc21 ?
FALSE

====

test system: HT-29; assay: NCI tumour cell line growth inhibition, 48 h
Active and inactive are the calls of the source. Cut-off read from the data, not from the text of the source: active = GI50 up to about 1.1 µM and inactive = higher.
Collected GI50 values appear next to each entry.

Answered cases to consult:
Cc1ccn2c(=O)cc(-c3ccccc3)nc2c1 ... > 100 µM (inactive)
CC(C)(N)CO[C@H]1C[C@H]2CC[C@@]1(C)C2(C)C ... 12.4 µM (inactive)
O=C1C=CC(=O)C(CNc2ccc(C(=O)OC34CC5CC(CC(C5)C3)C4)cc2)=C1Br ... 5.01 µM (inactive)
c1c[nH]c(-c2cccc3nsnc23)c1 ... 53.3 µM (inactive)
O=c1[nH]c2nc3ccccc3c(=O)n2/c1=C/c1ccccc1 ... 17.5 µM (inactive)
C=C1C(=O)O[C@@H]2[C@H](O)[C@@H](C)[C@@H]3C=CC(=O)[C@@]3(C)[C@H](OC(=O)C=C(C)C)[C@H]12 ... 1.26 µM (inactive)
CCCCNC(=S)Nc1nc(C(=O)NNC(=S)NC2CCCCC2)cs1 ... > 100 µM (inactive)
O=C(Nc1ccccc1)N(CCN(Cc1ccccc1)C(=O)Nc1ccccc1)CCN(Nc1ccccc1)C(=O)Nc1ccccc1 ... > 100 µM (inactive)
COCOc1cc(OC)c(Br)cc1C/C(=N/O)C(=O)OC ... > 100 µM (inactive)
C[N+]1(CCN=C=NC2CCCCC2)CCOCC1 ... > 100 µM (inactive)

The measured GI50 associated with CC(SC(=S)Nc1cccc(F)c1)C(=O)O (stereo not given) reads 30.5 µM (inactive)

Entry O=C1C=C(N2CCN(CCOCCO)CC2)C(=O)c2c(O)ccc(O)c21 — recorded GI50 = 4.48 µM (inactive)

# GI50 of COC1[C@H](NC(=O)OC(C)(C)C)C(=O)N1Cc1ccccc1 (stereo not given in full) = > 100 µM (inactive)

GI50 recorded for this compound, CC(C)C(=O)/C=C/c1ccc(Cl)cc1Cl , is 3.99 µM (inactive)

compound COc1ccc(C(=O)Nc2ccccc2C#N)cc1 , GI50 observed: > 100 µM (inactive)

N#CC(C#N)=C/C=C/c1c(Cl)cccc1Cl yielded GI50 of 1.7 µM (inactive)
